tested on: LOX IMVI melanoma; assay: NCI-60 one-dose screen, 48 h (100 = growth as untreated, 0 = no growth, -100 = all killed); conditions: 10 µM
About 83,000 compounds went through this panel and 20% of them were active in at least one assay; those are over-represented in the sample as a whole.
OBSERVABLE: growth (%)

{"columns": ["COMPOUND", "UNITS_OF_MEASURE", "TEST_VALUE"],
 "data": [
  ["CC1CC(O)C2C3(C)CCCC2(COC3=O)C12CCC1(CCOC1=O)O2 (centres undefined)", "%", 107],
  ["CCc1nn(Cc2ccccc2)c2nc(C)c(CCc3ccccc3)c(Cl)c12", "%", 92.6],
  ["O=[N+]([O-])c1ccc(Cl)c(S(=O)(=O)O)c1", "%", 102],
  ["COc1ccccc1N=Nc1c(O)ccc2cc(S(=O)(=O)O)ccc12", "%", 100],
  ["CC1Cc2ccccc2O1 (centres undefined)", "%", 97.4],
  ["Clc1ccc(-c2nnc(-c3cccc4ccccc34)o2)cc1", "%", 84.2],
  ["O=C(O)c1cccc([N+](=O)[O-])c1O", "%", 95.1],
  ["C=CCNc1ccccc1", "%", 93.7],
  ["N#CCCN(CCCN1CCOCC1)CN1C(=O)c2ccccc2C1=O", "%", 101],
  ["NCC(=O)CCC(=O)O", "%", 99.6],
  ["COC(=O)C(O)c1ccccc1 (centres undefined)", "%", 107],
  ["COc1ccc(C(=O)C(Br)C(Br)C(=O)O)cc1 (centres undefined)", "%", 97.7],
  ["O=c1cc(-c2ccccc2)[nH]c(=S)[nH]1", "%", 98.3],
  ["CC[N+](C)(CC)CCO", "%", 101],
  ["COC1=CC(=O)c2nc(Cl)ccc2C1=O", "%", -95.7],
  ["Cc1ccc(CCCC(=O)O)c(C)c1", "%", 99.3],
  ["CC(C)COC(=O)COC(=O)OCCOCCOC(=O)OCC(=O)OCC(C)C", "%", 106],
  ["CC1CCCCN1C(=S)Nc1ccc(S(=O)(=O)N2CCCCC2)cc1 (centres undefined)", "%", 105],
  ["Nc1ccc(N=Nc2ccc(O)cc2)c(N)n1", "%", 79.4],
  ["Nc1ccc(N=Nc2ccc(S(=O)(=O)O)cc2)c2ccccc12", "%", 100],
  ["O=c1cc(-c2ccccc2)nc2cc(-c3ccco3)[nH]n12", "%", 86.1],
  ["NC(=O)c1ccc(N=C(N)N=C(N)N)cc1", "%", 100],
  ["Nc1nc(OCc2ccccc2)c2[nH]cnc2n1", "%", 83.1],
  ["Nc1nc2c(c(-c3nc(N)nc4c3CCc3ccccc3-4)n1)CCc1ccccc1-2", "%", 98.3],
  ["CCOC(=O)C(O)C(O)C(=O)OCC (centres undefined)", "%", 99.8],
  ["O=C(CC(=O)c1ccccc1O)c1ccccc1", "%", 76.9],
  ["N#CCCc1ccc(O)cc1", "%", 107],
  ["S=c1[nH]ccn1-c1ccccc1Cl", "%", 100],
  ["CCC(C#N)(CC)c1ccccc1", "%", 97.9],
  ["CC(=Nc1ccccc1)C1=C(O)C(Cc2cccc(F)c2)NC1=O (centres undefined)", "%", 5.05],
  ["COC(=O)c1ccc(NC(=O)CCl)cc1", "%", -19.8],
  ["COC(=O)/C=C/C(=O)NC(N)=O", "%", 97.1],
  ["COc1cc2c(cc1OC)[C@H](C(=O)O)[C@@H](c1ccc(OC(C)C)c(OC)c1)N(C)C2=O", "%", 94.7],
  ["Cc1nc2ccccc2c(C(=O)O)c1O", "%", 96.4],
  ["Cc1ccc(C(O)C2CC2)cc1 (centres undefined)", "%", 100],
  ["Cc1ccc(Cl)cc1N1C(=O)CC(Sc2ccccc2N)C1=O (centres undefined)", "%", 94.7],
  ["CCOC(=O)C1=C(C)NC(=O)NC1c1cccs1 (centres undefined)", "%", 101],
  ["O=C1C=CC(=O)N1c1ccc(I)cc1Cl", "%", 101],
  ["CC1(O)CCCCC1O (centres undefined)", "%", 106],
  ["CCC(C)(O)c1ccc(C)cc1 (centres undefined)", "%", 106],
  ["C#Cc1cccc(NC(=O)c2ccc(Cl)cc2Cl)c1", "%", 98.5],
  ["CN(C)c1nc2c([nH]1)c(=O)n(C)c(=O)n2C", "%", 98.7],
  ["N#CC(=Nc1cccc(F)c1)C1=C(O)c2ccccc2C1=O", "%", 91.1],
  ["OCC1OC(OC2C(O)C(CO)OC2(CO)OC2OC(CO)C(O)C(O)C2O)C(O)C(O)C1O (centres undefined)", "%", 93.1],
  ["Oc1ccc(O)cc1", "%", 92.6],
  ["CN(C)c1ccc(C(c2ccc(O)cc2)c2ccc(N(C)C)cc2)cc1", "%", 88],
  ["CC(C)=C(NC(=O)c1ccccc1)C(=O)O", "%", 101],
  ["O=c1[nH]c(O)c(/C=C2/C=Nc3ccccc32)[nH]1", "%", 96.6],
  ["C=CCc1cc(C(C)=O)cc(OC)c1O", "%", 100]
]}
